Biological target: Tyrosine-protein kinase ABL2 (Homo sapiens); further: in the data inactive means no Kd found up to 30 µM
Sequence (P42684 whole entry): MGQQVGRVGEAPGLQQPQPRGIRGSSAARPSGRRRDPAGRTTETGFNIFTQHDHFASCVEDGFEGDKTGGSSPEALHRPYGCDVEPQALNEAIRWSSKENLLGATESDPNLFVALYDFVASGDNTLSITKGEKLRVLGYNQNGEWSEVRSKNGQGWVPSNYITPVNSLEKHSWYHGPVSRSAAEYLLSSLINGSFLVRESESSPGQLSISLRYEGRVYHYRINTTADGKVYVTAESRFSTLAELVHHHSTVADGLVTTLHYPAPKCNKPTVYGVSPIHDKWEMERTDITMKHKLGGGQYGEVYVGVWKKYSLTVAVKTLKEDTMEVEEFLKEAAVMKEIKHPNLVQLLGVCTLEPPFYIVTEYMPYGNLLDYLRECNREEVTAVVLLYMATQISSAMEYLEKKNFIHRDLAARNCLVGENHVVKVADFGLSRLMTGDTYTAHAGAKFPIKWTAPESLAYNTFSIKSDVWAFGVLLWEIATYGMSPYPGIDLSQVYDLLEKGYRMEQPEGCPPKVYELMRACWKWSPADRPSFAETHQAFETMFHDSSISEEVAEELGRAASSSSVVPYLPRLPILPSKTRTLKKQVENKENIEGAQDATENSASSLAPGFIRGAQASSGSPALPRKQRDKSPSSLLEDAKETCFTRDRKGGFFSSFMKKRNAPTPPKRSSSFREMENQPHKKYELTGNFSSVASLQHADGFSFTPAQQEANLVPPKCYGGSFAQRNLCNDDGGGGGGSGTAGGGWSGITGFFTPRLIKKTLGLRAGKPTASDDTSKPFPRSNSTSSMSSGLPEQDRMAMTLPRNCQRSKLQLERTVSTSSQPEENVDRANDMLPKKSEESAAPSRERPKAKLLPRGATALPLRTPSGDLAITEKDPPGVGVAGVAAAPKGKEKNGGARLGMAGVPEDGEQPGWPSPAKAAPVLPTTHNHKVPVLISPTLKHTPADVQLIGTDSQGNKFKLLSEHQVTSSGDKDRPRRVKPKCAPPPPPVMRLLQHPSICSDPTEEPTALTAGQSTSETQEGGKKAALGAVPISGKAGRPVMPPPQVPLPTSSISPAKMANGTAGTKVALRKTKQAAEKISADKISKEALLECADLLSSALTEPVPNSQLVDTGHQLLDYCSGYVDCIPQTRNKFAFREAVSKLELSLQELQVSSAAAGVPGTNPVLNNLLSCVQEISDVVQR
Calls of active or inactive are those of the source.
Just give me one of these, please: label 1 for active, label 0 for inactive

Worked examples follow.
In [3]: df
Out[3]:
                                   compound  category
0  Cc1c(F)cc(C(=O)NC2CC2)cc1-c1ccc(C(=O)NCC(C)(C)C)cn1 [LOSMAPIMOD]   label 0
1  O=C(O)[C@]1(Cc2cccc(Nc3nccs3)n2)CC[C@@H](Oc2cccc(Cl)c2F)CC1 [MK-5108]   label 1

Exam item: I would be grateful if you could indicate the recorded call for Cc1ccc(-n2nc(C(C)(C)C)cc2NC(=O)NCc2cc(F)ccc2Oc2ccc3c(cnn3CCO)c2)cc1 [PEXMETINIB] .
Marked response: label 1

Exam item: // same read-out, input: COc1cc(N2CCC(N3CCN(C)CC3)CC2)ccc1Nc1ncnc(Nc2ccccc2S(=O)(=O)C(C)C)n1 [ASP-3026]
Marked response: label 0

Exam item: // same read-out, input: CC[C@@H]1C(=O)N(C)c2cnc(Nc3ccc(C(=O)N[C@H]4CC[C@H](N5CCN(CC6CC6)CC5)CC4)cc3OC)nc2N1C(C)C [VOLASERTIB]
Marked response: label 0

Exam item: // same read-out, input: O=c1sn(-c2cccc3ccccc23)c(=O)n1Cc1ccccc1 [TIDEGLUSIB]
Marked response: label 0

Exam item: // same read-out, input: Cn1cc(-c2ccc3nnc(C(F)(F)c4ccc5ncccc5c4)n3n2)cn1 [JNJ-38877605]
Marked response: label 0

Exam item: // same read-out, input: COc1cc(CCc2cc(NC(=O)c3ccc(N4C[C@@H](C)N[C@@H](C)C4)cc3)n[nH]2)cc(OC)c1 [AZD-4547]
Marked response: label 0

Exam item: // same read-out, input: C1=C/COCc2cc(ccc2OCCN2CCCC2)Nc2nccc(n2)-c2cccc(c2)COC/1 [PACRITINIB]
Marked response: label 0

----------
Molecular target: Rho-associated protein kinase 2 (Homo sapiens, UniProt O75116); further: in the data inactive means no Kd found up to 30 µM
Sequence (O75116 whole entry): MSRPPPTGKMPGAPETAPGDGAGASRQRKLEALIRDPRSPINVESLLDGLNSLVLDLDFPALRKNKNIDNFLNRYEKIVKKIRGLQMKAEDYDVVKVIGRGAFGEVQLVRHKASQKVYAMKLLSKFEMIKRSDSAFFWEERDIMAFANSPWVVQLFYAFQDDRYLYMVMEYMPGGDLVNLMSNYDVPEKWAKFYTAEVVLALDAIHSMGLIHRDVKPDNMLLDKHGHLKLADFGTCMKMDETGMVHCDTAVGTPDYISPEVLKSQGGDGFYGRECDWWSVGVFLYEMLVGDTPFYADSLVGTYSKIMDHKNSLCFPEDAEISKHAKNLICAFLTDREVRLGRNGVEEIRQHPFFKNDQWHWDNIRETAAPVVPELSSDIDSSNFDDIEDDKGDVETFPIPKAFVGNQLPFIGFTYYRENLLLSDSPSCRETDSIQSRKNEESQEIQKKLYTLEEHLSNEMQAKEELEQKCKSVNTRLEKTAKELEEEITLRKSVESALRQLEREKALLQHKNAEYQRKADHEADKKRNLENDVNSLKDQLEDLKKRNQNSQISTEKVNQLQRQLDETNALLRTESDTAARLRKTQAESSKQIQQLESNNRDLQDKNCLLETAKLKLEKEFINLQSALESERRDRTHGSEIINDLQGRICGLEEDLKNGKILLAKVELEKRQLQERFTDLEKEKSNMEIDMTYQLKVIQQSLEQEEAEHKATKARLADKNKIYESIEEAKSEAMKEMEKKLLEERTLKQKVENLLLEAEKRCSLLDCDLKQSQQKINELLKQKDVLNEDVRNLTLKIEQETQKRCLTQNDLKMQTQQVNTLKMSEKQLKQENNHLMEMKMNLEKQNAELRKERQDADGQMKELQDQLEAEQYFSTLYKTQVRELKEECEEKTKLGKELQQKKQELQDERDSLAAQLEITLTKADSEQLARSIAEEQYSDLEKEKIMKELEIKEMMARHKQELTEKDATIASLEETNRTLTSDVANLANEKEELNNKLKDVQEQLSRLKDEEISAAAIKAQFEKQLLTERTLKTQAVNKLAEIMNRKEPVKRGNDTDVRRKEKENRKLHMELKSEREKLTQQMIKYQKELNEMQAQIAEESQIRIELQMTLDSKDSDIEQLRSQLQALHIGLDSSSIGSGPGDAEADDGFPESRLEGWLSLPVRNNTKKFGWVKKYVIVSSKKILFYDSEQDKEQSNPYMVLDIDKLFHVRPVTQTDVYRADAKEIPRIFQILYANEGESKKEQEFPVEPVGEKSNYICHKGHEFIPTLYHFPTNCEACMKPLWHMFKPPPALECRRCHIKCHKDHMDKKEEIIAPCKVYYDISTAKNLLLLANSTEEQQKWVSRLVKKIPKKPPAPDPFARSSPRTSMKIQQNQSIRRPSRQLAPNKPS
Active and inactive are the calls of the source.
Just give me one of these, please: active, inactive

                                   molecule  category
0  CC[C@H](Nc1ncnc2[nH]cnc12)c1nc2cccc(F)c2c(=O)n1-c1ccccc1 [IDELALISIB]  inactive

Exam item: I would be grateful if you could indicate the recorded call for `CN1CC[C@@H](c2c(O)cc(O)c3c(=O)cc(-c4ccccc4Cl)oc23)[C@@H]1CO` .
Marked response: inactive

Exam item: // same read-out, input: Cc1ccc(NC(=O)c2ccc(CN3CC[C@H](N(C)C)C3)c(C(F)(F)F)c2)cc1Nc1nccc(-c2cncnc2)n1 [BAFETINIB]
Marked response: inactive

Exam item: // same read-out, input: COc1cc2nccc(Oc3ccc(NC(=O)Nc4cc(C)on4)c(Cl)c3)c2cc1OC [TIVOZANIB]
Marked response: inactive

Exam item: // same read-out, input: Cn1ncc(Cl)c1-c1cc(C(=O)N[C@H](CN)Cc2cccc(F)c2)sc1Cl [AFURESERTIB]
Marked response: active

Exam item: // same read-out, input: Cc1ccc(-n2nc(C(C)(C)C)cc2NC(=O)NCc2cc(F)ccc2Oc2ccc3c(cnn3CCO)c2)cc1 [PEXMETINIB]
Marked response: inactive

Exam item: // same read-out, input: C[C@@H](c1ccc2nccn2c1)n1nnc2ncc(-c3cnn(C)c3)nc21 [SAVOLITINIB]
Marked response: inactive

Exam item: // same read-out, input: CNC(=O)c1cc(Oc2ccc(NC(=O)Nc3ccc(Cl)c(C(F)(F)F)c3)c(F)c2)ccn1 [REGORAFENIB]
Marked response: inactive

Exam item: // same read-out, input: COc1cc(N2CCC(N3CCN(C)CC3)CC2)ccc1Nc1ncnc(Nc2ccccc2S(=O)(=O)C(C)C)n1 [ASP-3026]
Marked response: inactive

Exam item: // same read-out, input: C=CC(=O)N1CCC(Oc2cc3c(Nc4ccc(Cl)c(Cl)c4F)ncnc3cc2OC)CC1 [POZIOTINIB]
Marked response: inactive

FYI, the data here is from ChEMBL document CHEMBL3991601.
